experimental_target: human recombinant GPR65 (Homo sapiens)
assay_notes: Human GPR65 cAMP HTRF antagonist assay
Format: cell-based
assay_conditions: 1321N1-hrGPR65 cells, cAMP HTRF, assay pH 7.2; read-out: hGPR65 IC50 (Activity of selected compounds according to the invention)
pIC50: −log10 of the molar value.
parameter: pIC50

molecule: N#Cc1cnc(F)c2c1[C@H]1CC[C@@H](C2)N1C(=O)Nc1cc(Cl)c(Cl)cc1F
pIC50: 5.30 to 6.30

Report pIC50 for each item below.
1. O=C(Nc1cc(Cl)c(-c2cn[nH]c2)cc1F)N1[C@H]2CC[C@@H]1c1n[nH]c(=O)cc1C2
2. N#Cc1cnc(NC(=O)N2C3CCC2c2n[nH]c(=O)cc2C3)cc1Cl (racemic)
3. O=C(Nc1cc(Cl)c(C2(O)CC2)cc1F)N1[C@H]2CC[C@@H]1c1ccnc(F)c1C2
4. CC(C)Oc1ccc(NC(=O)N2C3CCC2c2n[nH]c(=O)cc2C3)cc1Cl (racemic)
5. O=C(Nc1cc(-c2cccnc2F)c(-c2cccnc2F)cc1F)N1[C@H]2CC[C@@H]1c1n[nH]c(=O)cc1C2
6. O=C1NCCc2cc(-c3cc(F)c(NC(=O)N4[C@H]5CC[C@@H]4c4n[nH]c(=O)cc4C5)cc3Cl)ccc21

["< 5.30", "5.30 to 6.30", "5.30 to 6.30", "5.30 to 6.30", "5.30 to 6.30", "< 5.30"]

---

Provide the reported pIC50 of each item.
experimental_target: human recombinant GPR65 (Homo sapiens, UniProt Q8IYL9)
Sequence (Q8IYL9 whole entry): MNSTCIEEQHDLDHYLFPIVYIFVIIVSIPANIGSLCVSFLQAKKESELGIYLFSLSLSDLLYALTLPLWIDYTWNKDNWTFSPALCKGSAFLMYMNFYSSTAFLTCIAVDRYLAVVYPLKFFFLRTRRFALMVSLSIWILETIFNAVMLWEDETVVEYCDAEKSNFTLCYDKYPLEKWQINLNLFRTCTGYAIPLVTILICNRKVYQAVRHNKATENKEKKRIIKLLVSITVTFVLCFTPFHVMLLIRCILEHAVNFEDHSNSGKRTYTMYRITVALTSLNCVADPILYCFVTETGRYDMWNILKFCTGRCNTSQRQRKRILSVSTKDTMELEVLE
assay_notes: Human GPR65 cAMP HTRF antagonist assay
Format: cell-based
pIC50: −log10 of the molar value.

Example compounds with recorded pIC50:
compound: O=C(Nc1cc(Cl)c(-c2ccc(OCC(F)(F)F)nc2)cc1F)N1[C@H]2CC[C@@H]1c1n[nH]c(=O)cc1C2
observed_result: > 6.30
--
compound: O=C(Nc1cc(Cl)c(I)cc1F)N1C2CCC1c1n[nH]c(=O)cc1C2 (racemic)
observed_result: > 6.30
--
compound: O=C(Nc1cc(Cl)c(-c2cccnc2F)cc1F)N1[C@H]2CC[C@@H]1c1n[nH]c(=O)cc1C2
observed_result: > 6.30
--
compound: O=C(Nc1cc(Br)c(Cl)cc1F)N1C2CCC1c1n[nH]c(=O)cc1C2 (racemic)
observed_result: > 6.30
--
compound: O=C(Nc1cc(Cl)c(-c2ccccc2)cc1F)N1[C@H]2CC[C@@H]1c1n[nH]c(=O)cc1C2
observed_result: > 6.30

Report pIC50 for each item below.
1. O=C(Nc1cc(Cl)c(-c2ccc3csnc3c2)cc1F)N1[C@H]2CC[C@@H]1c1n[nH]c(=O)cc1C2
2. O=C1c2c(ccnc2F)C2CCC1N2C(=O)Nc1cc(Cl)c(Cl)cc1F (racemic)

1. > 6.30
2. > 6.30

---

Provide the reported IC50 of each item.
experimental_target: human recombinant GPR65 (Homo sapiens, UniProt Q8IYL9)
assay_notes: Human GPR65 cAMP HTRF antagonist assay
Assay type: cell-based
assay_conditions: 1321N1-hrGPR65 cells, cAMP HTRF, assay pH 7.2; read-out: hGPR65 IC50 (Activity of selected compounds according to the invention)

Example molecules with recorded IC50:
molecule: O=C(Nc1ccc(Br)c(Cl)c1)N1[C@@H]2CC[C@H]1c1n[nH]c(=O)cc1C2
parameter: IC50
observed_result: > 5 µM
//
molecule: O=C(Nc1cc(Cl)c(-c2cncn2C2CCCCO2)cc1F)N1[C@H]2CC[C@@H]1c1n[nH]c(=O)cc1C2 (stereo partly shown)
parameter: IC50
observed_result: 0.5 to 5 µM
//
molecule: O=C(Nc1cc(Cl)c(-c2ccc3n[nH]nc3c2)cc1F)N1[C@H]2CC[C@@H]1c1n[nH]c(=O)cc1C2
parameter: IC50
observed_result: 0.5 to 5 µM
//
molecule: COCc1cncc(-c2cc(F)c(NC(=O)N3[C@H]4CC[C@@H]3c3n[nH]c(=O)cc3C4)cc2Cl)c1
parameter: IC50
observed_result: 0.5 to 5 µM
//
molecule: Nc1ccc(-c2cc(F)c(NC(=O)N3[C@H]4CC[C@@H]3c3n[nH]c(=O)cc3C4)cc2Cl)cn1
parameter: IC50
observed_result: 0.5 to 5 µM
//
molecule: O=C(Nc1ccc(C2CCOCC2)cc1)N1[C@H]2CC[C@@H]1c1ccnc(F)c1C2
parameter: IC50
observed_result: 0.5 to 5 µM

Given the molecule `O=C(Nc1cc(Br)c(C(F)(F)F)cc1F)N1[C@@H]2CC[C@H]1c1c[nH]c(=O)nc1C2` , what is its reported IC50?
> 5 µM

---

experimental_target: human recombinant GPR65 (Homo sapiens)
assay_notes: Human GPR65 cAMP HTRF antagonist assay
Assay type: cell-based
assay_conditions: 1321N1-hrGPR65 cells, cAMP HTRF, assay pH 7.2; read-out: hGPR65 IC50 (Activity of selected compounds according to the invention)
pIC50: −log10 of the molar value.
Provide the reported pIC50 of each item.

Example molecules with recorded pIC50:
molecule: CNC(=O)c1ccc(-c2cc(F)c(NC(=O)N3[C@H]4CC[C@@H]3c3n[nH]c(=O)cc3C4)cc2Cl)cc1 [Compound 130]
observed_result: 5.30 to 6.30

molecule: CS(=O)(=O)c1ccc(-c2cc(F)c(NC(=O)N3[C@H]4CC[C@@H]3c3n[nH]c(=O)cc3C4)cc2Cl)cn1 [Compound 180]
observed_result: 5.30 to 6.30

molecule: O=C(Nc1ccc(N2CC3CCC(C2)O3)cc1)N1[C@H]2CC[C@@H]1c1ccnc(F)c1C2 [Compound 62]
observed_result: < 5.30

molecule: NC(=O)c1ccc(-c2cc(F)c(NC(=O)N3[C@H]4CC[C@@H]3c3n[nH]c(=O)cc3C4)cc2Cl)cc1 [Compound 129]
observed_result: 5.30 to 6.30

molecule: O=C(Nc1cc(Cl)c(-c2cncnc2)cc1F)N1[C@H]2CC[C@@H]1c1n[nH]c(=O)cc1C2 [Compound 137]
observed_result: 5.30 to 6.30

Report pIC50 for each item below.
1. Cn1nc2c(cc1=O)CC1CCC2N1C(=O)Nc1cc(Cl)c(Cl)cc1F (racemic) [Compound 83]
2. N#Cc1cnccc1-c1cc(F)c(NC(=O)N2[C@H]3CC[C@@H]2c2n[nH]c(=O)cc2C3)cc1Cl [Compound 179]
3. CNCCCOc1cnc(F)c2c1[C@H]1CC[C@@H](C2)N1C(=O)Nc1cc(Cl)c(C(F)(F)F)cc1F [Compound 161]
4. O=C1COc2ccc(-c3cc(F)c(NC(=O)N4[C@H]5CC[C@@H]4c4n[nH]c(=O)cc4C5)cc3Cl)cc2N1 [Compound 146]

5.30 to 6.30
5.30 to 6.30
5.30 to 6.30
5.30 to 6.30

Report pIC50 for each item below.
1. O=C(Nc1cc(Cl)c(Cl)cc1F)N1[C@H]2CC[C@@H]1c1ncccc1C2 [Compound 90]
2. CO[C@H]1C[C@@H](Oc2ccc(NC(=O)N3C4CCC3c3n[nH]c(=O)cc3C4)cc2Cl)C1 (mixture of isomers) [Compound 36]
3. CC(=O)Nc1ccc(-c2cc(F)c(NC(=O)N3[C@H]4CC[C@@H]3c3n[nH]c(=O)cc3C4)cc2Cl)cn1 [Compound 117]
4. COc1ccc2c(n1)C[C@@H]1CC[C@H]2N1C(=O)Nc1cc(Cl)c(Cl)cc1F [Compound 54]
5. COCc1ccncc1-c1cc(F)c(NC(=O)N2[C@H]3CC[C@@H]2c2n[nH]c(=O)cc2C3)cc1Cl [Compound 192]
6. O=C(Nc1cc(Cl)c(Cl)cc1F)N1[C@H]2CC[C@@H]1c1c(C#CCO)cnc(F)c1C2 [Compound 107]

< 5.30
< 5.30
5.30 to 6.30
< 5.30
5.30 to 6.30
5.30 to 6.30

---

experimental_target: human recombinant GPR65 (Homo sapiens)
assay_notes: Human GPR65 cAMP HTRF antagonist assay
Format: cell-based
parameter: IC50

Example compounds with recorded IC50:
compound: O=C(Nc1cc(Cl)c(Cl)cc1F)N1[C@H]2CC[C@@H]1c1c(Cl)cnc(F)c1C2
parameter: IC50
observed_result: < 500 nM
//
compound: O=C(Nc1cc(Cl)c(COc2ccccc2)cc1F)N1[C@H]2CC[C@@H]1c1n[nH]c(=O)cc1C2
parameter: IC50
observed_result: < 500 nM
//
compound: O=C(Nc1ccc(Cl)c(Br)c1)N1C2CCC1c1n[nH]c(=O)cc1C2 (racemic)
parameter: IC50
observed_result: < 500 nM
//
compound: O=C(Nc1cc(I)c(Cl)cc1F)N1[C@H]2CC[C@@H]1c1c[nH]c(=O)cc1C2
parameter: IC50
observed_result: 500 to 5000 nM
//
compound: O=C(Nc1cc(Cl)c(-c2ccc3cnoc3c2)cc1F)N1[C@H]2CC[C@@H]1c1n[nH]c(=O)cc1C2
parameter: IC50
observed_result: 500 to 5000 nM
//
compound: O=C(Nc1cc(Cl)c(-c2ccccn2)cc1F)N1[C@H]2CC[C@@H]1c1n[nH]c(=O)cc1C2
parameter: IC50
observed_result: < 500 nM
//
compound: O=C(Nc1cc(F)c(-c2ccc(F)nc2)cc1F)N1[C@H]2CC[C@@H]1c1n[nH]c(=O)cc1C2
parameter: IC50
observed_result: < 500 nM
//
compound: O=C(Nc1ccc2nsnc2c1)N1[C@H]2CC[C@@H]1c1n[nH]c(=O)cc1C2
parameter: IC50
observed_result: 500 to 5000 nM
//
compound: O=C(Nc1cc(Cl)c(Br)cc1F)N1C2CCC1c1n[nH]c(=O)cc1C2 (racemic)
parameter: IC50
observed_result: < 500 nM
//
compound: COc1ccc(-c2cc(F)c(NC(=O)N3[C@H]4CC[C@@H]3c3c[nH]c(=O)cc3C4)cc2F)cn1
parameter: IC50
observed_result: < 500 nM

Report IC50 for each item below.
1. Cn1ncc2cc(-c3cc(F)c(NC(=O)N4[C@H]5CC[C@@H]4c4n[nH]c(=O)cc4C5)cc3Cl)ccc21
2. O=C(Nc1cc(Cl)c(Cl)cc1F)N1[C@H]2CC[C@@H]1c1c[nH]c(=O)nc1C2
3. O=C(Nc1cc(Cl)c(C(F)(F)F)cc1F)N1[C@@H]2CC[C@H]1[C@H](F)c1c2ccnc1F
4. O=C(Nc1cc(Cl)c(C(F)(F)F)cc1F)N1C2CCC1c1n[nH]c(=O)cc1C2 (racemic)
5. O=C(Nc1cc(Cl)c(-c2ccsn2)cc1F)N1[C@H]2CC[C@@H]1c1n[nH]c(=O)cc1C2

1: < 500 nM; 2: < 500 nM; 3: < 500 nM; 4: < 500 nM; 5: < 500 nM
